- Test system: H9c2
- assay.summary: Cytotoxicity against rat H9c2 cells assessed as cell growth inhibition after 48 hrs
- Assay type: cell-based
- protocol.conditions: H9c2, 48 h
pIC50: −log10 of the molar value.

| compound.smiles | pIC50 |
| --- | --- |
| C=C1C[C@H]2O[C@H]([C@@H]3[C@@H]4C[C@@H](OC[C@@H]4C)[C@](C)(O)[C@@H]32)[C@](C)(OC(=O)CCC)CC[C@@H]1OO | 4.40 |
